Experimental System: IDH2 R172K (Homo sapiens, UniProt P48735, R172K)
Sequence (P48735 40-452 R172K): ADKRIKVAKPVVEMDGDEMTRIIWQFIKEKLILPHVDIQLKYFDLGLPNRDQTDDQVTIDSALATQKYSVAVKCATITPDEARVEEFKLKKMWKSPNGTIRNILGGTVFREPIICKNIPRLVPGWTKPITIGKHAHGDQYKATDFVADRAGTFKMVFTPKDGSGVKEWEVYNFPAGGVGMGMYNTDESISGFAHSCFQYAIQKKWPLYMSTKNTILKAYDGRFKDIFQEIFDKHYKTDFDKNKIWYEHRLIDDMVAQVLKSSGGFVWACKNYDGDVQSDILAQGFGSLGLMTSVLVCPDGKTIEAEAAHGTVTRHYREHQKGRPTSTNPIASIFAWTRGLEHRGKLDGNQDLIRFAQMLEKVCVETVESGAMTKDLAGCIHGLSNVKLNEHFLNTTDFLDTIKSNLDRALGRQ
Test Name: IDH2 R172K enzymatic assay (NADPH cofactor depletion, diaphorase/resazurin readout)
Stated Conditions: read-out: Enz R172K
pIC50: −log10 of the molar value.
Each entry below carries its reported pIC50.

Compound	pIC50
CC(C)CCNc1nc(Nc2ccncc2)nc(-c2ccccc2)n1	6.00 to 7.00
COCCNc1nc(Nc2ccccc2)nc(-c2ccccc2)n1	5.00 to 6.00
Cn1nccc1Nc1nc(Nc2ccnc(C(F)(F)F)c2)nc(-c2cccc(C(F)(F)F)n2)n1	6.00 to 7.00
CC(C)Nc1nc(Nc2ccnc(C(F)(F)F)c2)nc(-c2cccc([S+](C)[O-])c2)n1 (stereo not drawn)	6.00 to 7.00
CC(C)Nc1nc(Nc2cccc(C#N)c2)nc(-c2ccccc2)n1	6.00 to 7.00
CC(C)Nc1nc(Nc2cccnc2)nc(-c2ccccc2)n1	5.00 to 6.00
CC1(Nc2nc(Nc3cc(F)cc(F)c3)nc(-c3cccc(N)n3)n2)CC1	> 7.00
Fc1ccccc1-c1nc(Nc2cncc(C(F)(F)F)c2)nc(NC2COC2)n1	> 7.00
Cc1nc(-c2nc(Nc3cc(F)cc(F)c3)nc(NC(C)C)n2)co1	6.00 to 7.00
